This section lists log10(IC50) readings for Monoglyceride lipase (Mus musculus, UniProt O35678).
Plainly stated, the numbers are log10 of IC50 given in nM.

Memo: CCCCCCCCCSP1(=O)OCc2ccccc2O1 (configuration not stated) , reported log10(IC50): -0.51

Briefly, log10(IC50) measured for CCCCCCCCCCCCP(=O)(OCC)Oc1ccc(C#N)cc1 (configuration not stated) : -1.15

Lookup result for CCCCCCCCCCCCS(=O)(=O)F [DODECANESULFONYL FLUORIDE] ; measured log10(IC50): 2.30

Summary for this compound, CCOP(=O)(OCC)Oc1ccc([N+](=O)[O-])cc1 [PARAOXON] : log10(IC50) is 3.36

Lookup result for CCCCCCCCS(=O)(=O)F ; measured log10(IC50): 2.15

Short answer for CCCCCCCCCCCCP(=O)(OCC)Oc1nc(Cl)c(Cl)cc1Cl (configuration not stated) : log10(IC50) was -0.85

Entry CCCCCCCCCCCCP(=O)(Oc1ccc([N+](=O)[O-])cc1)OC(C)C (configuration not stated) ; log10(IC50) = -0.55

* * *

Parameter 'readout' = pIC50; parameter 'system' = Cannabinoid receptor 1 (Mus musculus).
Sequence (P47746 whole entry): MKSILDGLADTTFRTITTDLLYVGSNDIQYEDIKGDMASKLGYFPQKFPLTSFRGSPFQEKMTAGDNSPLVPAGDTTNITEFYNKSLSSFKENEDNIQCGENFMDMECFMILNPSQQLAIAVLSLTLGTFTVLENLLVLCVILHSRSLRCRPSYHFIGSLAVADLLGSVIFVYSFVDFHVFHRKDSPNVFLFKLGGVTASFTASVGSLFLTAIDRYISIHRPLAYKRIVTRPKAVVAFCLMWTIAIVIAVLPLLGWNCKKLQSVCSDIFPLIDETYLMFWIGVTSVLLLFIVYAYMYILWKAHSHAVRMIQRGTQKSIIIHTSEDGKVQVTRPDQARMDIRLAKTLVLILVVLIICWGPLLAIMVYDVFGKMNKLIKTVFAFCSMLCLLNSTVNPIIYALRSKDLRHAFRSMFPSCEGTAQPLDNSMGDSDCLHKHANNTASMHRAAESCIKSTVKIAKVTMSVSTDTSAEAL
In plain terms, pIC50 is the concentration in mol/L turned into minus its base-10 logarithm.

Use the examples below as a reference point.
compound: CCOP(=O)(OCC)Oc1ccc([N+](=O)[O-])cc1 [PARAOXON]
assayed.system: Cannabinoid receptor 1 (Mus musculus)
pIC50: 5.92

compound: CCCCCCCCCCCCP(=O)(OCC)Oc1nc(Cl)c(Cl)cc1Cl (centres undefined)
assayed.system: Cannabinoid receptor 1 (Mus musculus)
pIC50: 7.85

compound: CCCCCCCCCCCCP(=O)(OCC)Oc1ccc(C#N)cc1 (centres undefined)
assayed.system: Cannabinoid receptor 1 (Mus musculus)
pIC50: 8.40

For CCCCCCCCCCCCP(=O)(Oc1ccc([N+](=O)[O-])cc1)OC(C)C (centres undefined) on Cannabinoid receptor 1 (Mus musculus), measured pIC50 was 7.92
